Reference source: patent US5061794A

Test system: K. oxytoca GN10650
protocol_text: in vitro antibacterial activity, agar plate dilution method (MIC)
Assay type: cell-based
test_context: Klebsiella oxytoca, GN10650, 16 h, read-out: Minimum Inhibitory Concentration (MIC), *K. oxytoca GN10650, lactamase-producing strain; 10^6 CFU/ml
endpoint_name: MIC (µg/mL)
Numbers only; they are read as µg/mL.

Documented MIC of CC(C)(O/N=C(\C(=O)N[C@@H]1C(=O)N2C(C(=O)O)=C(CSc3ncc(-c4ccccc4)o3)CS[C@H]12)c1csc(N)n1)C(=O)O [compound 22, reference compound] : 6.25

Documented MIC of CC(=O)Oc1ccc(-c2nc(SCC3=C(C(=O)O)N4C(=O)[C@@H](NC(=O)/C(=N\OC(C)(C)C(=O)O)c5csc(N)n5)[C@H]4SC3)sc2CC(=O)O)cc1 [compound 20, reference compound] : 3.12

Documented MIC of CC(C)(ON=C(C(=O)NC1C(=O)N2C(C(=O)O)=C(CSc3nc(-c4ccc(O)c(O)c4)cs3)CSC12)c1csc(N)n1)C(=O)O (centres unmarked) : 0.025

Documented MIC of CC(=O)Oc1ccc(-c2nc(SCC3=C(C(=O)O)N4C(=O)C(NC(=O)C(=NOC(C)(C)C(=O)O)c5csc(N)n5)C4SC3)sc2CC(=O)O)cc1OC(C)=O (centres unmarked) : 0.2

Documented MIC of "CCON=C(C(=O)N[C@@H]1C(=O)N2C(C(=O)[O-])=C(CSc3ncc(-c4ccc(O)c(O)c4)o3)CS[C@H]12)c1csc(N)n1.[Na+]" : 3.12
